molecular target: HLA-A*02:01 (Homo sapiens, UniProt P04439, D140Y/D185E/D98H/E176V/E277Q/G131W/G231S/I119V/I121R/I166T/I218V/L300P/L318F/N151K/N90K/P208A/P217A/Q86G/Q94H/R138H/R169H/T345S); test: MHC binding assay (UV-ligand exchange, beta2m ELISA); conditions: binding to HLA-A*02:01, UV-ligand exchange
MEASUREMENT_LABEL: Peptide exchange (MHC class I binding score, peptide exchange yield)

# count of solved cases: 5
81 (FIFSYITAV; listed as Homo sapiens) [compound 81]
“++” (≥20% = ++)
253 (YSDDDVPSV; listed as Homo sapiens) [compound 253]
“++++” (≥75% = ++++)
111 (YLLDTLLSL; listed as Homo sapiens) [compound 111]
“+++” (≥50 = +++)
306 (AQVALVNEV; listed as Homo sapiens) [compound 306]
“+++” (≥50 = +++)
7 (NLLGMIFSM; listed as Homo sapiens) [compound 7]
“++++” (≥75% = ++++)

Answer for every listed entry: what is its Peptide exchange (MHC class I binding score, peptide exchange yield)? The entries follow.
1. 35 (SLSSERYYL; listed as Homo sapiens) [compound 35]
2. 228 (IIAEYLSYV; listed as Homo sapiens) [compound 228]
3. 78 (AMEEAVAQV; listed as Homo sapiens) [compound 78]
4. 133 (ALEELTGFREL; listed as Homo sapiens) [compound 133]

["“+++” (≥50 = +++)", "“++” (≥20% = ++)", "“+++” (≥50 = +++)", "“++” (≥20% = ++)"]
